This collection of values is drawn from ChEMBL document CHEMBL1201862.

system: SNB-75; assay: NCI tumour cell line growth inhibition, 48 h
Calls of active or inactive are those of the source. Cut-off read from the data, not from the text of the source: active = GI50 up to about 1.1 µM and inactive = higher.
Permitted responses: 1 (active), -1 (inactive)

Before answering, review these 6 worked examples.
compound: COc1ccc2c(c1)C=C(C(C)(C)C)NS2(=O)=O
group: -1

compound: c1ccc2c(c1)OCCc1cn[nH]c1-2
group: -1

compound: O=C1CCC(=O)c2sccc2N1
group: -1

compound: CC#CC#C/C=C1/O[C@]2(CCC(OC(C)=O)CO2)[C@@H]2O[C@H]12 (stereo partly drawn)
group: -1

compound: COc1cc(Nc2c(C#N)[n+]([O-])c3ccccc3[n+]2[O-])cc(OC)c1OC
group: -1

compound: Cn1c(=O)[nH]c2nncnc2c1=O
group: -1

Problem: Per the records of this test, what outcome belongs to c1ccc2c(OCC3CO3)ccc(OCC3CO3)c2c1 (stereo not drawn) ?
Solution: -1

Problem: Quick one: COCOc1cc(OC)ccc1C=O
Solution: -1

Problem: Quick one: Cc1cn(C2CC(O)C(CO)O2)c(=O)n2nnnc12 (stereo not drawn)
Solution: -1

Problem: Quick one: COc1ccc2nc3cc(Cl)ccc3c(NCCCNCCCNc3c4ccc(Cl)cc4nc4ccc(OC)cc34)c2c1
Solution: 1

Problem: Quick one: CC(=O)C1C(c2ccc(N(C)C)cc2)c2cc3c(cc2OC1(C)O)OCO3 (stereo not drawn)
Solution: -1

Problem: Quick one: COC(NC(=O)Nc1ccc(C)cc1)(C(F)(F)F)C(F)(F)F
Solution: -1

Problem: Quick one: CCCn1c(SCC)c2cc3cc4ccccc4cc3cc2c1-c1nc(F)nc(F)n1
Solution: -1

Problem: Quick one: CC(=O)N1CCc2c([nH]c3ccc(Br)cc23)C1c1ccccc1 (stereo not drawn)
Solution: -1

Problem: Quick one: Cc1ccc2c3ccc4c(c3n(C)c2c1)C(=O)C=CC4=O
Solution: -1

Problem: Quick one: CCN(CC)CCC(=O)c1ccc(Cl)c(Cl)c1
Solution: -1

Problem: Quick one: COc1cc(Nc2nc3cc(C(F)(F)F)ccc3nc2C(=O)O)cc(OC)c1OC
Solution: -1

Problem: Quick one: Cc1cc([N+](=O)[O-])c(C)c2c1[nH]c1ccc(/C(CCC3CCCC3)=N\N)cc12
Solution: -1

Problem: Quick one: NC(=O)C(=CN1C(=O)CC(=O)NC1=S)C(N)=O
Solution: -1
